# assaySystem: death-associated protein kinase (DAPK) (Homo sapiens, UniProt P53355)
# Sequence (P53355 1-285 limits assumed, species assumed): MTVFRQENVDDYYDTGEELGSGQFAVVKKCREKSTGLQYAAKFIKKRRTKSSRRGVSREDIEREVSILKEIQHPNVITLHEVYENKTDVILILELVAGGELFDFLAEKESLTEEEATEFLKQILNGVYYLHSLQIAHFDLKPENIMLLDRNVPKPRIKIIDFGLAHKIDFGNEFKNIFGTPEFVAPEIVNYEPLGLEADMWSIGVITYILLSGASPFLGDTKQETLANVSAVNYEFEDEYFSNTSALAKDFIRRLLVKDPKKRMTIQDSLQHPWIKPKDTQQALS
# protocolDetails: Kinase inhibitory activity against death-associated protein kinase
# Format: biochemical
# recordedConditions: read-out: DAPK (μM), in vitro inhibition of kinases
IC50 values, listed per item
Report the value in µM with no unit label.

{"columns": ["testSmiles", "IC50 / µM"],
 "data": [
  ["N=c1ccc(-c2ccccc2)nn1CCCCCCCCCCC(=O)NCCC1CCCC1", 206]
]}

Inquiry: Supply IC50 measured with death-associated protein kinase (DAPK) (Homo sapiens, UniProt P53355) for N=c1ccc(-c2ccccc2)nn1CCCCCCCCCCC(=O)NCCc1c[nH]cn1 .
Reply text: 271
